Field: relative cell count. Provide a value for each of the compounds that follow.
# Test system: U-2 OS
# method-description: relative cell count vs DMSO (cell painting) (fraction of DMSO control); higher = more cells remaining (less cytotoxic)
# assay-context: 1.25 µM; 24 h
A bare number is all that is needed in reply.

The observed relative cell count for C[C@@H]1O[C@@H](O[C@H]2[C@H](OC(=O)[C@]34CCC(C)(C)C[C@H]3C3=CC[C@@H]5[C@@]6(C)C[C@H](O)[C@H](O[C@@H]7O[C@H](CO)[C@@H](O)[C@H](O)[C@H]7O)[C@@](C)(CO)[C@@H]6CC[C@@]5(C)[C@]3(C)CC4)O[C@H](CO)[C@@H](O)[C@@H]2O)[C@H](O)[C@H](O)[C@H]1O[C@@H]1OC[C@@H](O)[C@H](O)[C@H]1O when tested with U-2 OS stands at 0.972

Tested on U-2 OS: Cc1cc(NC(=O)c2cccc(NC(=O)/C=C/CN(C)C)c2)ccc1Nc1nccc(-c2cccnc2)n1 . Observed relative cell count: 0.863

Case C[C@@H]1O[C@@H](O[C@H]2[C@H](O[C@H]3CC[C@@]4(C)[C@@H](CC[C@]5(C)[C@@H]4CC=C4[C@@H]6CC(C)(C)CC[C@]6(C(=O)O[C@@H]6O[C@H](CO[C@@H]7O[C@H](CO)[C@@H](O[C@@H]8O[C@@H](C)[C@H](O)[C@@H](O)[C@H]8O)[C@H](O)[C@H]7O)[C@@H](O)[C@H](O)[C@H]6O)CC[C@]45C)[C@]3(C)CO)OC[C@H](O)[C@@H]2O)[C@H](O)[C@H](O)[C@H]1O , U-2 OS, relative cell count recorded as 0.966
